studyTarget: GECFINDER-His2 (Bacillus licheniformis, UniProt O68008)
Construct: BacC-HisA-PCP; cpEGFP inserted, linkers GG-PV
Sequence (O68008 2956-3585): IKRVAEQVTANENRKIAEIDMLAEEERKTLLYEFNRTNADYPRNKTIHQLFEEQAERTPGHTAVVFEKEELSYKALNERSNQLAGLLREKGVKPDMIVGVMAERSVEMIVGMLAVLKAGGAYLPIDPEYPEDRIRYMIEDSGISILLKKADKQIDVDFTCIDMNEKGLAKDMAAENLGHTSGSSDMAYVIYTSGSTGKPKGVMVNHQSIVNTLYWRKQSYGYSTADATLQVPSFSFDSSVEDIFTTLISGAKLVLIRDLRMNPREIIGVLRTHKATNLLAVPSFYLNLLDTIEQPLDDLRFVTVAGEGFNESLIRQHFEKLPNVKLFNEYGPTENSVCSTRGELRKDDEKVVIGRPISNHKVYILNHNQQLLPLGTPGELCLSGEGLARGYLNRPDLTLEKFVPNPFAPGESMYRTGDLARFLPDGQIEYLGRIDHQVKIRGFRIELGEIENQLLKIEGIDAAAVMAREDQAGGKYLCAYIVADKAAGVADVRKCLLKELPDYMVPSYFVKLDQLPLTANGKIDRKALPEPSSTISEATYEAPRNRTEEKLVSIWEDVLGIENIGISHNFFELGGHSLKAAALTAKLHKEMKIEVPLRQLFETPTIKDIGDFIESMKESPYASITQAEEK
assayProtocol: Fluorescence dose-response of purified cpEGFP sensors (0.75 uM) in 100 mM Tris-HCl pH 7.5, room temperature, 1 mM ATP, 2.5 mM MgCl2; excitation 400, 460 or 480 nm by sensor, emission 510 nm; logistic five-parameter fit.
conditionDescription: n = 3
observationType: EC50

Recorded EC50 (molecule N[C@@H](Cc1c[nH]cn1)C(=O)O ): 13.2 µM

---

studyTarget: GECFINDER-Tyr (Aneurinibacillus migulanus, UniProt P0C061, W239S)
assayProtocol: Fluorescence dose-response of purified binding-pocket-engineered sensors (0.75 uM) in 100 mM Tris-HCl pH 7.5, room temperature, 1 mM ATP, 2.5 mM MgCl2, excitation 460 or 480 nm, emission 510 nm; logistic five-parameter fit.
conditionDescription: n = 3
observationType: EC50 (µM)
One number for each entry, in µM.

N[C@@H](Cc1ccc(O)cc1)C(=O)O [Tyr, tyrosine] | 89.8

// next item, EC50 requested
Recorded EC50 (compound N[C@@H](Cc1ccccc1)C(=O)O [Phe, phenylalanine] ): 258

---

studyTarget: GECFINDER-Leu1 (Aneurinibacillus migulanus, UniProt P0C061, A301G/T278M)
Construct: gene grsA; GrsA-PheA-PCP
assayProtocol: Fluorescence dose-response of purified binding-pocket-engineered sensors (0.75 uM) in 100 mM Tris-HCl pH 7.5, room temperature, 1 mM ATP, 2.5 mM MgCl2, excitation 460 or 480 nm, emission 510 nm; logistic five-parameter fit.
Type: biochemical
conditionDescription: n = 3
observationType: EC50 (µM)
Answers are plain numbers, in µM.

Recorded EC50 (molecule CC(C)C[C@H](N)C(=O)O [Leu, leucine] ): 58.4

---

assayProtocol: Substrate (ligand) specificity of […]s
Assay type: biochemical
conditionDescription: Supplementary Fig. 3 c; substrate specificity
Protocol: Fig. 4 Engineering ligand specificity of GrsA-PheA for generating […]s. a The selectivity-conferring code of Phe and Leu A domains. b–f Dose–response curve of purified […]s with increasing concentrations of ligands in 100 mM Tris-HCl buffer (pH=7.5). All data shown are means ± S.D. (n = 3 biologically independent samples). g A series of […] reactions was tested to show the […]’s specificity with 20 proteinogenic amino acids. […]
observationType: fluorescence response of GECFINDER to each substrate, AVE of 3 repeats
One number for each entry.

Solved cases below.
CC(C)[C@H](N)C(=O)O | -0.02124
NCCCC[C@H](N)C(=O)O | -0.005837
N[C@@H](CCC(=O)O)C(=O)O | -0.007518

Give fluorescence response of GECFINDER to each substrate, AVE of 3 repeats for each listed item.
1. N[C@@H](Cc1c[nH]c2ccccc12)C(=O)O
2. N[C@@H](CC(=O)O)c1ccccc1
3. N=C(N)NCCC[C@H](N)C(=O)O

OUT:
1: -0.01712; 2: 2.126; 3: 0.01953

---

Hi there, I'd appreciate the recorded fluorescence response of GECFINDER to each substrate, AVE of 3 repeats for every entry that follows.
assayProtocol: Substrate (ligand) specificity of […]s
Type: biochemical
conditionDescription: Supplementary Fig. 3 c; substrate specificity

Solved cases below.
O=C(O)[C@@H]1CCCN1 | -0.002038
N[C@@H](Cc1ccccc1)C(=O)O | 0.3443
CC[C@H](C)[C@H](N)C(=O)O | 0.009799

Give fluorescence response of GECFINDER to each substrate, AVE of 3 repeats for each listed item.
1. CSCC[C@H](N)C(=O)O
2. N[C@@H](CO)C(=O)O
3. NC(=O)CC[C@H](N)C(=O)O

OUT:
[0.1232, -0.004319, 0.009843]
